- measured.target: T1, IL-1beta (UniProt P01584 117-269)
- T1 construct: also called IL-1β
- assay: Biacore
readout: fold difference in affinity vs parental (fold)
Numbers only, in fold.

binder	fold difference in affinity vs parental, fold
XPA23 Fab, heavy chain G55Q (Fab, V domains shown) VH: EVQLLESGGGLVQPGGSLRLSCAASGFTFSKYFMFWVRQAPGKGLEWVSVISPSQGMTRYADSVKGRFTISRDNSKNTLYLQMNSLRAEDTAVYYCARVGYGGNSDYWGQGTLVTVSS VL: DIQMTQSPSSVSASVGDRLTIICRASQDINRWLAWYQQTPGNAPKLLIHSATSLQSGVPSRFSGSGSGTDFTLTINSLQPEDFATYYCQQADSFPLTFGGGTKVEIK	0.9

In the following, a different binder is considered.
Entry XPA23 Fab, heavy chain I51Y (Fab, V domains shown) VH: EVQLLESGGGLVQPGGSLRLSCAASGFTFSKYFMFWVRQAPGKGLEWVSVYSPSGGMTRYADSVKGRFTISRDNSKNTLYLQMNSLRAEDTAVYYCARVGYGGNSDYWGQGTLVTVSS VL: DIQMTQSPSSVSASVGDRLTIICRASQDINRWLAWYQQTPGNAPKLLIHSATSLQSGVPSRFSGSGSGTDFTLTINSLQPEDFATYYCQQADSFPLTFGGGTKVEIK , fold difference in affinity vs parental reported as 1.75

Ref: patent US20110118131A1
